TARGET OF ASSAY: recombinant PRL-3 (Homo sapiens, UniProt O75365)
Construct: 6xHis (N, cleaved yes); made in house; host or cells: E. coli One Shot BL21 Star
Sequence (O75365 whole entry): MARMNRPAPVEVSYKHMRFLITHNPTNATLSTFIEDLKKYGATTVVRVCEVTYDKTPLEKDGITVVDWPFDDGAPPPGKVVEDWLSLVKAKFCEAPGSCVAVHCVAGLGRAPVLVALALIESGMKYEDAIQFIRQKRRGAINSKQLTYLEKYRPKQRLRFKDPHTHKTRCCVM
ASSAY METHOD TEXT: In vitro phosphatase assay (DiFMUP hydrolysis), PRL-3
Assay type: biochemical
One threshold, 90%, splits the recorded % Phosphatase Activity (compared to DMSO) PRL-3 values: lower ones are 1, equal or higher ones are 0.

Exam item: Dear colleague, could you confirm whether % Phosphatase Activity (compared to DMSO) PRL-3 of Cl.Cl.NCCc1c[nH]cn1 [Histamine 2HCl] falls below 90%? Thanks.
Marked response: 1

###

TARGET OF ASSAY: recombinant PRL-3 (Homo sapiens)
Construct: 6xHis (N, cleaved yes); made in house; host or cells: E. coli One Shot BL21 Star
ASSAY METHOD TEXT: In vitro phosphatase assay (DiFMUP hydrolysis), PRL-3
Assay type: biochemical
REPORTED CONDITIONS: FDA-approved drug screen; compared to DMSO
Structures can show the parent of a compound that is named as a salt.
ATTRIBUTE MEASURED: % Phosphatase Activity (compared to DMSO) PRL-3 (%)
Give bare numbers, in %.

Example compounds with recorded % Phosphatase Activity (compared to DMSO) PRL-3:
COMPOUND: CO/N=C(\C(=O)N[C@@H]1C(=O)N2C(C(=O)O)=C(CSc3nnnn3C)CS[C@H]12)c1csc(N)n1.CO/N=C(\C(=O)N[C@@H]1C(=O)N2C(C(=O)O)=C(CSc3nnnn3C)CS[C@H]12)c1csc(N)n1.Cl [Cefmenoxime hydrochloride]
TARGET OF ASSAY: recombinant PRL-3 (Homo sapiens)
TEST VALUE: 84

COMPOUND: O=C1C(O)=C([C@H]2CC[C@H](c3ccc(Cl)cc3)CC2)C(=O)c2ccccc21
TARGET OF ASSAY: recombinant PRL-3 (Homo sapiens)
TEST VALUE: 90

COMPOUND: COc1ccc(C(=O)CC(=O)c2ccc(C(C)(C)C)cc2)cc1
TARGET OF ASSAY: recombinant PRL-3 (Homo sapiens)
TEST VALUE: 87

Quick batch: % Phosphatase Activity (compared to DMSO) PRL-3 for everything below.
1. Clc1ccc(C(c2ccccc2Cl)C(Cl)Cl)cc1 (centres unmarked)
2. C=CC(=O)Nc1cccc(Nc2nc(Nc3ccc(N4CCN(C(C)=O)CC4)cc3OC)ncc2C(F)(F)F)c1
3. CCCC(C(=O)OCCN(CC)CC)(c1ccccc1)c1ccccc1 [Proadifen HCl]
4. CC(=O)NS(=O)(=O)c1ccc(NC(=O)c2ccccc2C(=O)O)cc1 [Phthalylsulfacetamide]
5. CS(=O)(=O)O.Oc1ccc(C2CNCCc3c2cc(O)c(O)c3Cl)cc1 (centres unmarked) [Fenoldopam (mesylate)]
6. O=C(O)c1ccccc1
7. Cc1c(O)cccc1C(=O)N[C@@H](CSc1ccccc1)[C@H](O)CN1C[C@H]2CCCC[C@H]2C[C@H]1C(=O)NC(C)(C)C [Nelfinavir Mesylate]
8. CCOc1ccc2nc3cc(N)ccc3c(N)c2c1 [Ethacridine lactate monohydrate]

Marked response:
1: 103; 2: 98; 3: 105; 4: 101; 5: 96; 6: 76; 7: 79; 8: 201

Report % Phosphatase Activity (compared to DMSO) PRL-3 for each item below.
1. O=C(N[C@H](CO)[C@H](O)c1ccc([N+](=O)[O-])cc1)C(Cl)Cl
2. CCC1(c2cnc[nH]2)Cc2ccccc2C1
3. Cc1ccc(NC(=O)c2ccc(CN3CCN(C)CC3)cc2)cc1Nc1nc(-c2cccnc2)cs1
4. Cc1cc(C(C#N)c2ccc(Cl)cc2)c(Cl)cc1NC(=O)c1cc(I)cc(I)c1[O-].[Na+] (centres unmarked) [Closantel Sodium, reference compound]

Marked response:
[83, 87, 92, 34]
